# Target Or Test System: DCN1-like protein 1 (Homo sapiens)
# Sequence (Q96GG9 whole entry, the tested form may be a part): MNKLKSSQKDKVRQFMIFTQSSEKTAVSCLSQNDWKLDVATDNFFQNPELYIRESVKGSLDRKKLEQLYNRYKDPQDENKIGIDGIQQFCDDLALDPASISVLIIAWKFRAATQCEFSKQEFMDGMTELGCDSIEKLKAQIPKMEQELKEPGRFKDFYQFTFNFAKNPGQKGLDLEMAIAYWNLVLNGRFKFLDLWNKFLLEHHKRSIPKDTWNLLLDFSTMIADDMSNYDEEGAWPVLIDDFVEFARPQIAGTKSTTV
# Experimental Details: Displacement of (S)-N1-((19S,22S)-26-Amino-19-carbamoyl-1-(3',6'-dihydroxy-3-oxo-3H-spiro[isobenzofuran-1,9'-xanthen]-5-yl)-1,13,21-trioxo-5,8,11-trioxa-2,14,20-triazahexacosan-22-yl)-2-((2S,5S,8S,11S,14S,17S,20S,23S,26S)-2-(3-amino-3-oxopropyl)-5,20-bis(4-aminobutyl)-14-benzyl-23-((S)-sec-butyl)-11-(hydroxymethyl)-8,17-diisobutyl-26-(naphthalen-2-ylmethyl)-4,7,10,13,16,19,22,25,28-nonaoxo-3,6,9,12,15,18,21,24,27-nonaazanonacosanamido)pentanediamide from recombinant N-terminal His6-tagged human DCN1 (58 to 259 residues) expressed in Escherichia coli Rosetta2 cells after 30 mins by fluorescence polarization assay
Non-standard residues stand in square brackets, D forms with d. Residues, ends and D or L forms follow the SMILES beside them. *: point of attachment. 2Nal = N[C@@H](Cc1ccc2ccccc2c1)C(=O)O; Isovaleryl = CC(C)CC(=O)*; Moc = COC(=O)*
Observable: IC50

Example results:
[[record]]
molecule = "CC[C@H](C)[C@H](NC(=O)[C@@H](N)Cc1ccc2ccccc2c1)C(=O)N[C@@H](CCCCN)C(=O)N[C@@H](CC(C)C)C(N)=O (H-[2Nal]IKL-NH2)"
target_or_test_system = "DCN1-like protein 1 (Homo sapiens)"
observable = "IC50"
experimental_result = "> 100 µM"

[[record]]
molecule = "CC[C@H](C)[C@H](NC(=O)[C@H](Cc1ccc2ccccc2c1)NC(=O)OC)C(=O)N[C@@H](CCCCN)C(=O)N[C@@H](CC(C)C)C(N)=O (Moc-[2Nal]IKL-NH2)"
target_or_test_system = "DCN1-like protein 1 (Homo sapiens)"
observable = "IC50"
experimental_result = "> 50 µM"


Please turn your attention to the following entry.
[in] GET /values?readout=IC50&item= CC[C@H](C)[C@H](NC(=O)[C@H](Cc1ccc2ccccc2c1)NC(=O)CC(C)C)C(=O)N[C@@H](CCCCN)C(=O)N[C@@H](CC(C)C)C(N)=O (Isovaleryl-[2Nal]IKL-NH2)
[out] > 20 µM
